This collection of values is drawn from ChEMBL document CHEMBL1201862.

- system: UniProtKB Q6QLK5
- Sequence (Q6QLK5 whole entry, the tested form may be a part): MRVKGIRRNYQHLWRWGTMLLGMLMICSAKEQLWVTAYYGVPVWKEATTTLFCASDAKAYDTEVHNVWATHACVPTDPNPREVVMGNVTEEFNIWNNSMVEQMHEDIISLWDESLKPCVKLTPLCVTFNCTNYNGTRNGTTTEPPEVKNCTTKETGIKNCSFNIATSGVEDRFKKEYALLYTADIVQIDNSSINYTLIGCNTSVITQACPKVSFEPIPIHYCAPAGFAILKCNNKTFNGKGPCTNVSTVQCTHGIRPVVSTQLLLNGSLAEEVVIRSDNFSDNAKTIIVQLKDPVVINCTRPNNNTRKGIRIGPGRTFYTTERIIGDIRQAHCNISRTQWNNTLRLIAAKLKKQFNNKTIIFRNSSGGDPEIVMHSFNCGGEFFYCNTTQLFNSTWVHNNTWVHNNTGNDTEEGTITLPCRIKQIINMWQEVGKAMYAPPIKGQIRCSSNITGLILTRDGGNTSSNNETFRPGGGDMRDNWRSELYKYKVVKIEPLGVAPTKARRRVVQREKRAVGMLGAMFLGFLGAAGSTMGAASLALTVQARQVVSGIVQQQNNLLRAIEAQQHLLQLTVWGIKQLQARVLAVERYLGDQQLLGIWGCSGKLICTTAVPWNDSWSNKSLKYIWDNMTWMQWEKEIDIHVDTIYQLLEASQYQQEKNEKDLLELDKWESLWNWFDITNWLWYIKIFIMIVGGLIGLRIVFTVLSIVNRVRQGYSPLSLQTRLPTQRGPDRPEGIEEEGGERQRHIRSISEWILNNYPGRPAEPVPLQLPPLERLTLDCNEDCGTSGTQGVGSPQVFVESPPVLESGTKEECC
- experimentDescription: cell-free HIV fusion peptide-binding blockers – biochemical, uHTS, fluorescence dequenching, […] (AID 1986)
Active and inactive are the calls of the source. Rule as the data show it: actives have a measured IC50 and inactives only a lower limit.
Listed molecules paired with reported IC50
measuredAttribute: IC50

{"structureNotation": "O=[N+]([O-])c1cc(Cl)cc(/C=N/NC(=S)Nc2ccc(S(=O)(=O)N3CCOCC3)cc2)c1O", "measuredAttribute": "IC50", "result": "28.2 µM (active)"}
{"structureNotation": "COc1cc(/C=C2/C(=O)NN(c3ccc(C)c(Cl)c3)C2=O)cc([N+](=O)[O-])c1O", "measuredAttribute": "IC50", "result": "30.2 µM (active)"}
{"structureNotation": "O=C(CCN1C(=O)/C(=C\\c2ccccc2F)SC1=S)Nc1ccc(C(=O)O)c(O)c1", "measuredAttribute": "IC50", "result": "15.1 µM (active)"}
{"structureNotation": "COc1ccc(O)c(C(=O)c2cc(SCC(=O)O)c3nc4sc5c(c4c(=O)n3c2)CCCC5)c1", "measuredAttribute": "IC50", "result": "14.2 µM (active)"}
